TARGET OR SYSTEM: T1, mouse PD-1 (mouse, UniProt Q02242 25-169, limits assumed)
T1 sequence (looked up): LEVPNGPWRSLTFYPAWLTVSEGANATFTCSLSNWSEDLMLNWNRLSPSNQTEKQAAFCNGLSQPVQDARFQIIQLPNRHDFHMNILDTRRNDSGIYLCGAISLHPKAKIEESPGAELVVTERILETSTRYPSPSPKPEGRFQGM
TEST DESCRIPTION: assays not detailed
MEASURED ATTRIBUTE: binding result

Look over these answered cases.
BINDER | binding result
7D3 murine anti-PD-1 antibody (antibody, V domains shown, Purified hybridoma antibody; also called 7D3-mIgG1) VH: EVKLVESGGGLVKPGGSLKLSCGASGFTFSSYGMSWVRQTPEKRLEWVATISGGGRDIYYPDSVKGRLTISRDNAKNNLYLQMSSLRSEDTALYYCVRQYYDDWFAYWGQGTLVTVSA VL: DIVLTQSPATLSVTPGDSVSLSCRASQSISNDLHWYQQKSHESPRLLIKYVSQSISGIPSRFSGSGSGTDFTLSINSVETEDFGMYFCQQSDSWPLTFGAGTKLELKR | no binding
22A5 murine anti-PD-1 antibody (antibody, V domains shown, Purified hybridoma antibody; also called 22A5-mIgG1) VH: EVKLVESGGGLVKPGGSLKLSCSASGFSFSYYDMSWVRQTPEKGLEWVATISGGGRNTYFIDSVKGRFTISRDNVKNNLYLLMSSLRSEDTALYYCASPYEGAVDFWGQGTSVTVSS VL: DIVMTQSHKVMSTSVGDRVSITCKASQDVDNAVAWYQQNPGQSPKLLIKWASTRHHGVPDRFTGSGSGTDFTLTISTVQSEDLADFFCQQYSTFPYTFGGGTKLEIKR | no binding
15H5 murine anti-PD-1 antibody (antibody, V domains shown, Purified hybridoma antibody; also called 15H5-mIgG1) VH: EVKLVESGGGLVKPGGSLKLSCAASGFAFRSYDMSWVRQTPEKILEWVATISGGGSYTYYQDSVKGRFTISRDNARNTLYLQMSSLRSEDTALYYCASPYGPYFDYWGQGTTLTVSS VL: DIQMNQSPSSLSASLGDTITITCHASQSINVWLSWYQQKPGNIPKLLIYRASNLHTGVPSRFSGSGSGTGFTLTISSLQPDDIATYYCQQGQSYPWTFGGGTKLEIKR | no binding
13F1 murine anti-PD-1 antibody (antibody, V domains shown, Purified hybridoma antibody; also called 13F1-mIgG1) VH: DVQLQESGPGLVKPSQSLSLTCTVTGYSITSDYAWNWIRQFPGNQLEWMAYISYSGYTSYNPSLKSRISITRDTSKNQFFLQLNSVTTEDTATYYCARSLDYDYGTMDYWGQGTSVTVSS VL: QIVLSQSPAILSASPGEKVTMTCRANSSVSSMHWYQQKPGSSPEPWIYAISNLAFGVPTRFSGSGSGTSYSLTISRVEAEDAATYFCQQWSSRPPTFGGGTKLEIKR | no binding

Problem: GET /values?readout=binding result&item= 14A6 murine anti-PD-1 antibody (antibody, V domains shown, Purified hybridoma antibody; also called 14A6-mIgG1) VH: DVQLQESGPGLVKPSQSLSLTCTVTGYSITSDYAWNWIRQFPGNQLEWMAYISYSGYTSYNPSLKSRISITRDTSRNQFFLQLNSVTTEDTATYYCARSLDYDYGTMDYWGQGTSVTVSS VL: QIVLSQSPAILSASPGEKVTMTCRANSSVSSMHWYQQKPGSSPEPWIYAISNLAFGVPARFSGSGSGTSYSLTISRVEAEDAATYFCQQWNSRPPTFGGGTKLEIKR
Result: no binding

Just for reference, patent US20170267762A1 is where these values come from.
